- Test system: H358 cells (KRAS G12C)
- Assay Name: 3D Cell viability assay in H358 cells (Biological Example 6)
- Assay type: cell-based
- Test Context: H358 (KRAS G12C) spheroids, 72 hours
Reported Metric: IC50

The molecule listed as CCN(c1nc(OCC23CCCN2CC(F)C3)nc2c(F)c(-c3ccc(F)c4sc(N)c(C#N)c34)c(C(F)(F)F)cc12)C1CC(C)N(C(=O)C2CC2(F)F)C1 (stereo not shown) shows IC50 equal to ≤ 100 nM

* * *

- Target Or Test System: Avi-KRAS G12V (1-169) GppNHp/RAF1 RBD-3xFLAG (52-151) (Homo sapiens, UniProt P01116, G12V)
- Construct: Avi-KRAS G12V (1-169)
- Sequence (P01116 1-169 isoform P01116-2 G12V): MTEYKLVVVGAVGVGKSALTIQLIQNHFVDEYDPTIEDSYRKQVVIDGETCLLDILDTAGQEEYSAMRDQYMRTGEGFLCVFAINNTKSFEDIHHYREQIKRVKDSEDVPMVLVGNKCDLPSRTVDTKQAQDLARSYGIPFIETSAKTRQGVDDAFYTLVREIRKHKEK
- Assay Name: Raf1-KRAS G12V-GppNHP disruption HTRF assay (Biological Example 1)
- Type: binding
- Test Context: KRAS G12V, GppNHp-loaded; class symbols
pIC50: −log10 of the molar value.
Reported Metric: pIC50

These recorded examples may help you get a feel for the data.
CCN(c1nc(OC[C@@]23CCCN2C[C@H](F)C3)nc2c(F)c(-c3ccc(F)c4sc(N)c(C#N)c34)c(C(F)(F)F)cc12)[C@H]1CCN(C(=O)OC2COC2)[C@@H]1C (atropisomer, axis not shown); > 7.00
N#Cc1c(N)sc2c(F)ccc(-c3c(C(F)(F)F)cc4c(N(C5CC5)[C@H]5CCN(C(=O)N6CC(F)C6)C5)nc(OC[C@@]56CCCN5C[C@H](F)C6)nc4c3F)c12 (atropisomer, axis not shown); 6.00 to 7.00

The molecule listed as [2H][C@]1(N(CC)c2nc(OC[C@@]34CCCN3C[C@H](F)C4)nc3c(F)c(-c4ccc(F)c5sc(N)c(C#N)c45)c(C(F)(F)F)cc23)CCN(C(=O)OC)C1 (atropisomer, axis not shown) shows pIC50 equal to > 7.00

The molecule listed as CCN(c1nc(OC[C@@]23CCCN2C[C@H](F)C3)nc2c(F)c(-c3ccc(F)c4sc(N)c(C#N)c34)c(C(F)(F)F)cc12)[C@H]1CCN(C(=O)C2CC2)[C@@H]1C (atropisomer, axis not shown) shows pIC50 equal to > 7.00

The molecule listed as CCN(c1nc(OC[C@@]23CCCN2C[C@H](F)C3)nc2c(F)c(-c3ccc(F)c4sc(N)c(C#N)c34)c(C(F)(F)F)cc12)[C@H]1C[C@@H](COC)N(C(=O)OC)C1 (atropisomer, axis not shown) shows pIC50 equal to 6.00 to 7.00

The molecule listed as CCN(c1nc(OC[C@@]23CCCN2C[C@H](F)C3)nc2c(F)c(-c3ccc(F)c4sc(N)c(C#N)c34)c(C(F)(F)F)cc12)C1CCN(C(=O)N2C3COCC2C3)C1 (some centres unmarked) shows pIC50 equal to > 7.00

The molecule listed as CCN(c1nc(OC[C@@]23CCCN2C[C@H](F)C3)nc2c(F)c(-c3ccc(F)c4sc(N)c(C#N)c34)c(C(F)(F)F)cc12)[C@@H]1C[C@@H](C)N(C(=O)COC)C1 (atropisomer, axis not shown) shows pIC50 equal to 6.00 to 7.00

The molecule listed as CCc1c(C(=O)N(C)C)nn2c1CN(c1nc(OCC34CCCN3CC(F)C4)nc3c(F)c(-c4ccc(F)c5sc(N)c(C#N)c45)c(C(F)(F)F)cc13)CC2 (centres unmarked) shows pIC50 equal to 6.00 to 7.00

The molecule listed as CCN(c1nc(OC[C@@]23CCCN2C[C@H](F)C3)nc2c(F)c(-c3ccc(F)c4sc(N)c(C#N)c34)c(C(F)(F)F)cc12)[C@H]1CCN(C(=O)N2CC(F)C2)[C@@H]1C (atropisomer, axis not shown) shows pIC50 equal to > 7.00

The molecule listed as CCN(c1nc(OC[C@@]23CCCN2C[C@H](F)C3)nc2c(F)c(-c3ccc(F)c4sc(N)c(C#N)c34)c(C(F)(F)F)cc12)[C@H]1CCN(C(=O)N(C)C(C)C)C1 (atropisomer, axis not shown) shows pIC50 equal to > 7.00

The molecule listed as CCN(c1nc(OC[C@@]23CCCN2C[C@H](F)C3)nc2c(F)c(-c3ccc(F)c4sc(N)c(C#N)c34)c(C(F)(F)F)cc12)[C@H]1CCN(C(=O)N(C)C)[C@@H]1C (atropisomer, axis not shown) shows pIC50 equal to > 7.00

The molecule listed as CCOC(=O)N1CC[C@H](N(CC)c2nc(OC[C@@]34CCCN3C[C@H](F)C4)nc3c(F)c(-c4ccc(F)c5sc(N)c(C#N)c45)c(C(F)(F)F)cc23)C1 (atropisomer, axis not shown) shows pIC50 equal to > 7.00

The molecule listed as CC(=O)N1CC[C@H]2[C@@H]1CN2c1nc(OC[C@@]23CCCN2C[C@H](F)C3)nc2c(F)c(-c3ccc(F)c4sc(N)c(C#N)c34)c(C(F)(F)F)cc12 (atropisomer, axis not shown) shows pIC50 equal to 5.00 to 6.00

Source listed as patent US20260042764A1.
